Source of measurements: ChEMBL document CHEMBL4689842

I'd be grateful if you could share measured Growth Rate for these entries.
# Tested on: U2OS
# protocol.notes: Incucyte cell viability with U2OS; also: filed as whole numbers so only -1 and 0 and 1 occur
# Type: toxicity, cell-based
# condition.parameters: human, 6 h, 10 µM, compound concentration 10 uM, replicate number 2, timepoint 6 hours
One number for each entry.

Example entries and their recorded answers appear below.
> print(dat)
                                    compound  property.name  reading
 1        Nc1nc(NCc2ccccc2)nc(-c2ccccc2CO)n1    Growth Rate        1
 2  CN1CCC[C@@H]1CCO[C@](C)(c1ccccc1)c1ccc(Cl)cc1.O=C(O)/C=C/C(=O)O [CLEMASTINE FUMARATE]    Growth Rate        0
 3  CC(C)(C)NCC(O)COc1cccc2[nH]c(=O)[nH]c12.Cl (stereo not given)    Growth Rate        0
 4  Cc1sc2c(c1C)C(c1ccc(Cl)cc1)=N[C@@H](CC(=O)OC(C)(C)C)c1nnc(C)n1-2    Growth Rate        1
 5  CS(=O)(=O)c1cccc(NC(=O)N(Cc2ccc(C(=O)Nc3nn[nH]n3)cc2)c2ccc(C3CCCCC3)cc2)c1    Growth Rate        1
 6  Cc1csc2c(N[C@@H](C)CN3CCN(S(=O)(=O)c4ccc(Cl)c(Cl)c4)CC3)ncnc12    Growth Rate        1
 7  CCCCN1CCC(COC(=O)c2cc(Cl)c(N)c3c2OCCO3)CC1.Cl    Growth Rate        0
 8  O=C(O)C[C@H]1CCc2c1[nH]c1ccc(OCc3ccc(C4CCCC4)c(C(F)(F)F)c3)cc21    Growth Rate        0
 9  CN(C)C(=O)/C(C#N)=C/c1ccc(-c2nc3cnc4[nH]ccc4c3n2C2CCCCC2)o1    Growth Rate        1
10  CN([C@@H]1CCc2c(CC(=O)O)c3ccccc3n2C1)S(=O)(=O)c1ccc(F)cc1    Growth Rate        0

Okay, here is my list. What is Growth Rate for each of these?
1. CNC(=NCCSCc1csc(N=C(N)N)n1)NC#N
2. O=C(O)c1ccc(-c2coc3ncc(-c4ccccc4)cc23)cc1Cl
3. C[C@H](Cc1cc2c(c(C(N)=O)c1)N(CCCO)CC2)NCCOc1ccccc1OCC(F)(F)F
4. CSc1ccc(C(=O)N[C@@H]2CCCC[C@@H]2NC(=O)CNC(=O)c2cc(C(F)(F)F)ccc2NC(=O)NC(C)C)cc1
5. C[C@@H](c1cccc(CN)c1)n1cc(Cl)cc(C(N)=O)c1=N.Cl

A:
1: 0; 2: 0; 3: 0; 4: 0; 5: 0
